Sourced from the supplement of paper PMC6757056

B1: library; a variant is named by its letters at N, in order (parent)
chain: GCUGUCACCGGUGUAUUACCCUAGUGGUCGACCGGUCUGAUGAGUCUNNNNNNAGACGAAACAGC

# Variants of: B1
# test.name: normalized RNA/DNA level without ligand (relative to sTRSVctl = 100) (log10 (% of sTRSVctl)); ligand: hypoxanthine (xanthine aptamer); higher = less ribozyme self-cleavage, higher mRNA level
# run.parameters: HEK293T, reporter: mCherry (pCS4076), ligand present: no
assay.metric: normalized RNA/DNA level without ligand (log10)

[
  {
    "variant.spec": "UUUCCA",
    "quantitative.readout": 1.89
  },
  {
    "variant.spec": "ACGUUC",
    "quantitative.readout": 1.79
  },
  {
    "variant.spec": "CAGCAA",
    "quantitative.readout": 1.64
  },
  {
    "variant.spec": "UGACGA",
    "quantitative.readout": 1.58
  },
  {
    "variant.spec": "CGUAAA",
    "quantitative.readout": 1.65
  },
  {
    "variant.spec": "CUUGAG",
    "quantitative.readout": 1.72
  },
  {
    "variant.spec": "CCUUGA",
    "quantitative.readout": 1.86
  },
  {
    "variant.spec": "AGUCUG",
    "quantitative.readout": 1.54
  },
  {
    "variant.spec": "UAUGGA",
    "quantitative.readout": 1.65
  },
  {
    "variant.spec": "UAAUGC",
    "quantitative.readout": 1.82
  },
  {
    "variant.spec": "GUAUUC",
    "quantitative.readout": 1.93
  }
]
